Experiment: AML differentiation inducers, ER-HoxA9 marrow cells – cell-based, GFP/MAC1 double positive, flow cytometry, validation set, primary screen (AID 588685);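 further: compound exposure lasts four days before antibody staining and flow analysis; 0% = DMSO wells and 100% = 5 µM fulvestrant positive control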
Conditions: stronger effect = higher value, normalized: vehicle 0, fulvestrant 100
Calls of active or inactive are those of the source.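 How the source made its calls: active means differentiation response of at least 50%, scaled between solvent and reference control, from cells with both markers; inactive means the rest.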
differentiation response: recorded values

compound: Cc1ccc2c(c1C)NC(C(=O)O)C1CC=CC21 (configuration not stated)
differentiation response: -4% (inactive)
//
compound: COc1cccc(-n2cc(CNCc3c(C(=O)N(C)C)nc4ccc(Cl)cn34)cn2)c1
differentiation response: 10% (inactive)
//
compound: Cc1ccc2nc(C)c3c(c2c1)OC(C(C)(Cl)Br)C3 (configuration not stated)
differentiation response: 15.2% (inactive)
//
compound: CCOC(=O)c1oc2cc(O)cc(C)c2c(=O)c1-c1cscn1
differentiation response: 5.6% (inactive)
//
compound: O=Cc1ccc(O)c(O)c1
differentiation response: -4.57% (inactive)
//
compound: C=CCNC(=O)c1ccc(-c2cccc([N+](=O)[O-])c2)o1
differentiation response: 6.49% (inactive)
//
compound: c1ccc(Cn2nnc3cnccc32)cc1
differentiation response: -10.4% (inactive)
//
compound: Cc1ccc(C(=O)Nc2ccc(O)cc2C(=O)O)cc1C
differentiation response: 5.6% (inactive)
//
compound: CN(C)CC/C=C1\c2ccccc2COc2ccccc21
differentiation response: -6.96% (inactive)
//
compound: CN(C)C(=O)Oc1ccc[n+](C)c1
differentiation response: -1.71% (inactive)
//
compound: COc1ccc2[nH]c(CN3CCN(CC(C)C)C(CCO)C3)c(C)c2c1 (configuration not stated)
differentiation response: -4% (inactive)
//
compound: O=C(NC(=S)Nc1nc(-c2ccccc2)cs1)c1ccco1
differentiation response: 5.73% (inactive)

* * *

inhibition: recorded values
Biological target: ATP-binding cassette sub-family B member 6 (Homo sapiens) (UniProt Q9NP58)
Sequence (Q9NP58 whole entry, looked up): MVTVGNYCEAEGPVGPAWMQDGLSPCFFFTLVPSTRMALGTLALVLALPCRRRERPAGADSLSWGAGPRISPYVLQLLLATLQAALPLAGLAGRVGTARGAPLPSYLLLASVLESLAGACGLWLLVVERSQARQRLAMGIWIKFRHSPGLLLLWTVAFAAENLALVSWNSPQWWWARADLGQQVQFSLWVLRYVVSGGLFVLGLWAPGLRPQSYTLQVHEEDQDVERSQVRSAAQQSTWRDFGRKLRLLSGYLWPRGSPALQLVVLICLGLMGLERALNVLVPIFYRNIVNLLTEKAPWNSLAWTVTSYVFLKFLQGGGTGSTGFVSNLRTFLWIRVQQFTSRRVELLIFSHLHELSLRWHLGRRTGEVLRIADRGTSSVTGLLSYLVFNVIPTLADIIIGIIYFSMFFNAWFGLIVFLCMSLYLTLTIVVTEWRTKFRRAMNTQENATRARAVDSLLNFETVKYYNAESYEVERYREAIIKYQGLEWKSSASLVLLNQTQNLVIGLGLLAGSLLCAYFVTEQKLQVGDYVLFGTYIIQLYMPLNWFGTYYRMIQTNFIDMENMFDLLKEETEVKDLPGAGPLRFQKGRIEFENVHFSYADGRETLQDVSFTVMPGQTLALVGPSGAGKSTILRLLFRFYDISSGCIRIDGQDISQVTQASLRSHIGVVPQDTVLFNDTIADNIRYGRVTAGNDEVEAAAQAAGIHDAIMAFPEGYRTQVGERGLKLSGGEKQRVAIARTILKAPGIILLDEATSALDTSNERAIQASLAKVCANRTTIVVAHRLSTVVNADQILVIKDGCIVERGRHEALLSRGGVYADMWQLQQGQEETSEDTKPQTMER
Experiment: blockers of ABCB6-driven porphyrin uptake – K562-ABCB6 cells, flow cytometry, validation set, pilot screen (AID 588550);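 further: 0% = DMSO wells and 100% = benzethonium chloride 70 µM positive control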
Settings: K562-ABCB6 porphyrin accumulation, 1 h, at 10 µM, stronger effect = higher value
parameter measured: inhibition (%)

compound: O=C(NCCc1ccccc1)C1CCN(C2CCN(Cc3ccco3)CC2)CC1
u: %
observed result: 6

compound: C[C@]12CCC(=O)C=C1CC[C@@H]1[C@@H]2[C@@H](O)C[C@@]2(C)[C@H]1CC[C@]2(O)C(=O)COC(=O)CCC(=O)O
u: %
observed result: 10

compound: C#C[C@]1(O)CC[C@H]2[C@@H]3CCc4cc(O)ccc4[C@H]3CC[C@@]21C
u: %
observed result: 9

compound: CN1C2CCC1CC(OC(c1ccccc1)c1ccccc1)C2 (centres undefined)
u: %
observed result: -11

compound: c1ccc(Cn2ncc3c(Nc4ccccc4)ncnc32)cc1
u: %
observed result: 2

compound: CCc1nc(N)nc(N)c1-c1ccc(Cl)cc1
u: %
observed result: 10

compound: O=C(O)c1ccc(OCCn2ccnc2)cc1
u: %
observed result: 16

compound: COc1ccc(-c2cc(=O)oc3cc(OC(C)C(=O)O)ccc23)cc1 (centres undefined)
u: %
observed result: 3

compound: CC(C(=O)O)c1cccc(C(=O)c2ccccc2)c1 (centres undefined)
u: %
observed result: 20

compound: O=C1Cc2ccccc2C(c2ccccc2)N1 (centres undefined)
u: %
observed result: 9

compound: c1ccc2[nH]c(-c3cscn3)nc2c1
u: %
observed result: 0

compound: O=C(OCCNC(=O)c1ccc2ccccc2n1)c1ccc(F)cc1
u: %
observed result: 0

compound: COc1ccc(NC(=O)N2CCCCC2c2cccnc2)cc1 (centres undefined)
u: %
observed result: -2

compound: CSc1ccc(CN2CCN(CCC(C)C)C(CCO)C2)cc1 (centres undefined)
u: %
observed result: 0

compound: O=C(CCc1c[nH]c2ccccc12)NCc1ccco1
u: %
observed result: 5

compound: Cc1ccc2c(c1)C(O)(C1COC(C)(C)CC1=O)C(=O)N2C (centres undefined)
u: %
observed result: 12

compound: O=C(CCCN1C(=O)/C(=C\c2cccs2)SC1=S)Nc1ccccn1
u: %
observed result: -5

compound: CC(=O)CCCCn1c(=O)c2c(ncn2C)n(C)c1=O
u: %
observed result: -3

compound: CN(C)CCCN1c2ccccc2Sc2ccccc21
u: %
observed result: 8

compound: CC(C)(C)N1NC2(CCCCC2)NC1=S
u: %
observed result: 7

compound: O=C(N1CCCCC1)C1(c2ccccc2)CCOCC1
u: %
observed result: 5

compound: O=c1oc2c(CN3CCCCC3)c(O)ccc2c2c1CCCCC2
u: %
observed result: 4

compound: COc1ccc(C(CC(=O)N2CCOCC2)C(C)C)cc1 (centres undefined)
u: %
observed result: 7

compound: CC(=O)OC1c2c(ccc3ccc(=O)oc23)OC(C)(C)C1OC(=O)CC(C)C (centres undefined)
u: %
observed result: 15

* * *

Molecular target: Cell division control protein 42 homolog (Homo sapiens) (UniProt P60953)
Sequence (P60953 whole entry, looked up): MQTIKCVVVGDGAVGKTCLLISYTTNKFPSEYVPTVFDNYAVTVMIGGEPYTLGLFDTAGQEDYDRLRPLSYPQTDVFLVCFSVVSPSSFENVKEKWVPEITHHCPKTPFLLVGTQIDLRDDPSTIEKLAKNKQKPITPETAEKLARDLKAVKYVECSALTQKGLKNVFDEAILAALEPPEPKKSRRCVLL
Assay: inhibition of fluorescent GTP binding to wildtype Cdc42 – biochemical, multiplex bead flow cytometry, Bodipy-FL-GTP, dose response (AID 1334)
Details: bead-based flow cytometry, Bodipy-FL-GTP binding to GST-Cdc42; at 100 µM (top of the series) unless noted
Measured potencies and affinities stand elsewhere.
Recorded fluorescence, percent of control (lower = inhibition) split into classes low bin: < 30%; mid bin: ≥ 30% and < 50%; high bin: ≥ 50%

compound: COC(=O)CSc1nc2cc(Cl)ccc2c(=O)n1C1CCCC1
assigned category: high bin
//
compound: O=C(Cn1cnc2c(nnn2Cc2ccccc2F)c1=O)NCC1CCCO1 (stereo not given)
assigned category: high bin
//
compound: Cc1cccc(C)c1CCNc1ncccc1C(=O)O
assigned category: high bin
//
compound: CC(=O)Nc1ccc(Nc2ccc3c4c(cc(=O)n3C)-c3ccccc3C(=O)c24)cc1
assigned category: mid bin
//
compound: Cc1noc(C)c1COc1cccc(C(=O)NCc2ccccc2Cl)c1
assigned category: high bin
//
compound: COc1cc(NC(=O)c2cccs2)c(OC)cc1NC(=O)CCC(=O)Nc1cccc2ncccc12
assigned category: mid bin
//
compound: CCCCOc1cccc(C#CC(=O)c2ccc([N+](=O)[O-])cc2)c1
assigned category: high bin
//
compound: O=C(C#Cc1ccccc1)c1ccc([N+](=O)[O-])cc1
assigned category: low bin
//
compound: COc1cc(/C=C(\C#N)c2nc3ccc(C)cc3[nH]2)cc([N+](=O)[O-])c1O
assigned category: low bin
//
compound: CN(/N=C/C=C/c1ccccc1)C1=NS(=O)(=O)c2ccccc21
assigned category: mid bin
//
compound: CCC(=O)c1ccc(OCC(=O)O)c(OC)c1
assigned category: mid bin
//
compound: CCOc1cc(/C=N/NC(=O)C(C)Sc2ccccc2)ccc1O (stereo not given)
assigned category: mid bin
//
compound: COc1ccc(C(=O)N/C(=C\c2cccc([N+](=O)[O-])c2)C(=O)Nc2cccc(C(=O)O)c2)cc1
assigned category: mid bin
//
compound: COc1cc(/C=N/NC(=O)CN(Cc2ccco2)S(=O)(=O)c2ccccc2)ccc1O
assigned category: mid bin
//
compound: Cc1ccccc1NC(=O)c1ccc(NC(=O)C2CC(=O)OC23CCCCC3)cc1 (stereo not given)
assigned category: mid bin
//
compound: COc1cccc(/C=C/C(=O)Nc2ccccc2N2CCOCC2)c1
assigned category: mid bin
//
compound: COc1ccc(/C=C/C(=O)c2cc(Br)ccc(=O)c2O)cc1
assigned category: low bin
//
compound: O=C(O)c1ccc(CSCc2cccc(Cl)c2)o1
assigned category: high bin
//
compound: Cc1ccc(C(=O)Nn2c(O)c(C=C3N=c4ccccc4=N3)sc2=S)cc1
assigned category: mid bin
//
compound: COc1cc2[nH]c(=S)nc(NCCc3ccc(S(N)(=O)=O)cc3)c2cc1OC
assigned category: mid bin
//
compound: Cc1ccc(C(=O)O)c(OCCc2c(C)cccc2C)n1
assigned category: high bin
//
compound: N=c1oc2ccc3ccccc3c2cc1-c1nc(-c2ccccc2)cs1
assigned category: mid bin
//
compound: O=C(O)C1CCCN1C(=O)OCc1ccccc1 (stereo not given)
assigned category: high bin
//
compound: CCCC(=O)c1ccc(N2CCOCC2)c(F)c1
assigned category: mid bin
//
compound: S=C(NCCc1ccccc1)N1CCn2cccc2C1c1cccnc1 (stereo not given)
assigned category: low bin
//
compound: Clc1ccccc1-c1ccc(/C=N/Nc2nncc(-c3ccccc3)n2)o1
assigned category: mid bin
//
compound: CCOc1nnc(C)c2c(C)n(-c3ccc(Cl)cc3)nc12
assigned category: high bin
//
compound: COc1ccc(-c2nn3c(-c4ccccn4)nnc3s2)cc1OC
assigned category: mid bin
//
compound: O=S(=O)(Nc1ncn[nH]1)c1ccc2ccccc2c1
assigned category: high bin
//
compound: COc1ccc(Nc2nc(-c3c(C)nc4ncccn34)cs2)cc1
assigned category: low bin
//
compound: O=C(Nc1nc(-c2ccc(S(=O)(=O)N3CCCC3)cc2)cs1)c1cccs1
assigned category: high bin
//
compound: COc1cccc2cc(-c3ccnc(=S)[nH]3)oc12
assigned category: mid bin
//
compound: Nc1c(S(=O)(=O)c2cccc(Cl)c2)c2nc3ccccc3nc2n1/N=C/c1ccc(O)c(O)c1
assigned category: high bin
//
compound: CCOc1ccc(-n2nc3c(=S)[nH]nc(C)c3c2C)cc1
assigned category: high bin
//
compound: Cc1ccc(NC(=O)CS(=O)(=O)c2c[nH]c3ccccc23)c(C)c1
assigned category: mid bin
//
compound: CC(C)(C)C(=O)OCC1OC(n2cnc(C(N)=O)n2)C(O)C1O (stereo not given)
assigned category: mid bin
//
compound: O=C(O)c1ccccc1C(=O)OCc1ccccc1
assigned category: high bin
//
compound: COc1cc(N=c2oc3c(C)ncc(CO)c3cc2C(N)=O)cc(OC)c1OC
assigned category: low bin
//
compound: COc1ccc(-c2nn3c(-c4ccco4)nnc3s2)cc1OC
assigned category: mid bin
//
compound: CCOc1cc(/C=C(/C#N)c2nc3ccccc3[nH]2)ccc1OCc1ccc(C(=O)O)o1
assigned category: high bin
//
compound: NS(=O)(=O)c1ccc(CCN2C(=O)/C(=C\c3ccc(Cl)cc3)SC2=S)cc1
assigned category: low bin
